I'd be grateful if you could share measured % inhibition for these entries.
assay: Copper-binding ability: inhibition of cysteine autooxidation; type: biochemical; conditions: inhibitor concentration 50 μM; 100 μM Cys, 100 μM coumarin-3-carboxylic acid, 100 μM CuSO4
One number for each entry, in %.

Below: 3 molecules and their reported % inhibition.
1. CC(=O)OC(C)C[N+](C)(C)C.CC(=O)OC(C)C[N+](C)(C)C.[S]=[W](=[S])([S-])[S-] (stereo not shown) = 90.40
2. C[N+](C)(C)Cc1ccccc1.C[N+](C)(C)Cc1ccccc1.[S]=[W](=[S])([S-])[S-] = 94.62
3. CC[N+](CC)(CC)c1ccccc1.CC[N+](CC)(CC)c1ccccc1.[S]=[W](=[S])([S-])[S-] = 91.32

For the next question, use this molecule.
Data request, read-out % inhibition, for C[n+]1ccccc1C=NO.C[n+]1ccccc1C=NO.[S]=[W](=[S])([S-])[S-]
91.15
